- subject-of-test: Aurora kinase A (AURKA) (Homo sapiens)
- Construct: endogenous in cells; host or cells: HeLa LgBit (AURKA-HiBit KI), CRISPR/Cas9 knock-in at the endogenous AURKA locus
- method-description: Luciferase assay for AURKA in HeLa LgBit (AURKA-HiBit KI) cell line
- Format: cell-based
- assay-conditions: 100 nM compound, HeLa LgBit (AURKA-HiBit KI) cells, measured after 12 hours
measurement-type: luminescence value (Level)

molecule: O=C1CCC(c2ccc(N3CCN(CCN4CC[C@H](NC(=O)c5ccc(Nc6ncc(F)c(Nc7ccc(C(=O)Nc8ccccc8Cl)cc7)n6)cc5)C4)CC3)cc2)C(=O)N1 (some centres unmarked)
subject-of-test: Aurora kinase A (AURKA) (Homo sapiens)
reading: A (A is <0.2)
//
molecule: O=C1CCC(c2ccc(N3CCN(CCC4CCN(NC(=O)c5ccc(Nc6ncc(F)c(Nc7cc(C8CC8)[nH]n7)n6)cc5)CC4)CC3)cc2)C(=O)N1 (centres unmarked)
subject-of-test: Aurora kinase A (AURKA) (Homo sapiens)
reading: A (A is <0.2)
//
molecule: O=C1CCC(c2ccc(N3CCC(CN4CCC(NC(=O)c5ccc(Nc6ncc(F)c(Nc7ccc(C(=O)Nc8ccccc8Cl)cc7)n6)cc5)CC4)C3)cc2)C(=O)N1 (centres unmarked)
subject-of-test: Aurora kinase A (AURKA) (Homo sapiens)
reading: A (A is <0.2)
//
molecule: O=C1CCC(c2ccc(N3CCN(CCCN4CCC(NC(=O)c5ccc(Nc6ncc(F)c(Nc7ccc(C(=O)Nc8ccccc8Cl)cc7)n6)cc5)CC4)CC3)cc2)C(=O)N1 (centres unmarked)
subject-of-test: Aurora kinase A (AURKA) (Homo sapiens)
reading: A (A is <0.2)
//
molecule: O=C1CCC(c2ccc(N3CCN(CC[C@H]4CC[C@H](NC(=O)c5ccc(Nc6ncc(F)c(Nc7ccc(C(=O)Nc8ccccc8Cl)cc7)n6)cc5)CC4)CC3)c(F)c2)C(=O)N1 (some centres unmarked)
subject-of-test: Aurora kinase A (AURKA) (Homo sapiens)
reading: A (A is <0.2)

Missing value: luminescence value (Level), Aurora kinase A (AURKA) (Homo sapiens), entry O=C1CCC(Nc2cc(F)c(N3CCN(CCC4CCN(NC(=O)c5ccc(Nc6ncc(F)c(Nc7ccc(NC(=O)c8ccccc8F)cc7)n6)cc5F)CC4)CC3)cc2F)C(=O)N1 (centres unmarked) . Fill in?
A (A is <0.2)

Query luminescence value (Level) on Aurora kinase A (AURKA) (Homo sapiens) for O=C1CCC(c2ccc(N3CCC(CN4CCC5(CC4)CC(NC(=O)c4ccc(Nc6ncc(F)c(Nc7ccc(C(=O)Nc8ccccc8Cl)cc7)n6)cc4)C5)CC3)c(F)c2)C(=O)N1 (centres unmarked)
A (A is <0.2)

I'm curious: which luminescence value (Level) was measured for O=C1CCC(c2ccc(N3CCN(CCC4CCN(NC(=O)c5ccc(Nc6ncc(F)c(Nc7ccc(C(=O)Nc8ccccc8Cl)cn7)n6)cc5)CC4)CC3)cc2)C(=O)N1 (centres unmarked) tested on Aurora kinase A (AURKA) (Homo sapiens)?
A (A is <0.2)

Notebook entry, Aurora kinase A (AURKA) (Homo sapiens) assay: luminescence value (Level) of O=C1CCC(c2ccc(N3CCN(CCC4CCN(NC(=O)c5ccc(Nc6ncc(F)c(Oc7ccc(C(=O)Nc8ccccc8Cl)cc7)n6)cc5)CC4)CC3)cc2)C(=O)N1 (centres unmarked) = ?
A (A is <0.2)

Checklist item: luminescence value (Level) tested on Aurora kinase A (AURKA) (Homo sapiens), entry O=C1CCC(c2ccc(N3CCN(CCC4CCN(NC(=O)c5ccc(Nc6ncc(F)c(Nc7ccc(NC(=O)c8ccccc8Cl)cc7)n6)cc5)CC4)CC3)cc2)C(=O)N1 (centres unmarked) , value?
A (A is <0.2)

###

- subject-of-test: Aurora kinase A (AURKA) (Homo sapiens, UniProt O14965)
- Construct: endogenous in cells; host or cells: HeLa LgBit (AURKA-HiBit KI), CRISPR/Cas9 knock-in at the endogenous AURKA locus
- method-description: Luciferase assay for AURKA in HeLa LgBit (AURKA-HiBit KI) cell line
- Format: cell-based
- assay-conditions: 10 nM compound, HeLa LgBit (AURKA-HiBit KI) cells, measured after 12 hours
measurement-type: luminescence value (Level)

Reference set (5 entries):
compound: O=C1CCC(c2ccc(N3CCC(CN4CCC(NC(=O)c5ccc(Nc6ncc(F)c(Nc7ccc(C(=O)Nc8ccccc8Cl)cc7)n6)cc5)CC4)CC3)cc2)C(=O)N1 (centres unmarked) [Compound 50]
luminescence value (Level): B (B is 0.3 to 0.5)
//
compound: O=C1CCC(Nc2cccc(N3CCC(CN4CCN(C(=O)Cc5ccc(Nc6ncc(F)c(Nc7ccc(C(=O)Nc8ccccc8Cl)cc7)n6)cc5)CC4)CC3)c2)C(=O)N1 (centres unmarked) [Compound 25]
luminescence value (Level): C (C is 0.5 to 0.7)
//
compound: CN(c1cccc(N2CCC(CN3CCN(C(=O)Cc4ccc(Nc5ncc(F)c(Nc6ccc(C(=O)Nc7ccccc7Cl)cc6)n5)cc4)CC3)CC2)c1)C1CCC(=O)NC1=O (centres unmarked) [Compound 45]
luminescence value (Level): C (C is 0.5 to 0.7)
//
compound: O=C1CCC(c2ccc(N3CCN(CC4CCN(C(=O)c5ccc(Nc6ncc(F)c(Nc7ccc(C(=O)Nc8ccccc8Cl)cc7)n6)cc5)CC4)CC3)cc2)C(=O)N1 (centres unmarked) [Compound 3]
luminescence value (Level): C (C is 0.5 to 0.7)
//
compound: O=C1CCC(c2ccc(N3CCN(CCC4CCN(NC(=O)c5ccc(Nc6ncc(F)c(Nc7ccc(C(=O)Nc8ccccc8Cl)cc7)n6)cn5)CC4)CC3)cc2)C(=O)N1 (centres unmarked) [Compound 83]
luminescence value (Level): B (B is 0.3 to 0.5)

Given CN(CC1CCN(c2ccc(NC3CCC(=O)NC3=O)cc2)CC1)C[C@H]1CC[C@H](NC(=O)c2ccc(Nc3ncc(F)c(Nc4ccc(C(=O)Nc5ccccc5Cl)cc4)n3)cc2)CC1 (some centres unmarked) [Compound 38] , state its recorded luminescence value (Level).
B (B is 0.3 to 0.5)

I would be grateful if you could share the reported luminescence value (Level) for COc1cc(N2CCN(CCC3CCN(NC(=O)c4ccc(Nc5ncc(F)c(Nc6ccc(C(=O)Nc7ccccc7Cl)cc6)n5)cc4)CC3)CC2)c(F)cc1C1CCC(=O)NC1=O (centres unmarked) [Compound 118] .
B (B is 0.3 to 0.5)

Returns the measured luminescence value (Level) for the input compound. Input: CN(CC1CCN(c2ccc(NC3CCC(=O)NC3=O)cc2F)CC1)[C@H]1CC[C@H](NC(=O)c2ccc(Nc3ncc(F)c(Nc4ccc(C(=O)Nc5ccccc5Cl)cc4)n3)cc2)CC1 (some centres unmarked) [Compound 66]
A (A is <0.3)

Which luminescence value (Level) reading was recorded for the compound CN(CC1CCN(c2ccc(NC3CCC(=O)NC3=O)cc2)CC1)[C@H]1CC[C@H](NC(=O)c2ccc(Nc3ncc(F)c(Nc4ccc(C(=O)Nc5ccccc5Cl)cc4)n3)cc2)CC1 (some centres unmarked) [Compound 69] ?
A (A is <0.3)

What does the data say about its luminescence value (Level)? Entry: O=C1CCC(c2ccc(N3CCC(CN4CCN(C(=O)Cc5ccc(Nc6ncc(F)c(Nc7ccc(C(=O)Nc8ccccc8Cl)cc7)n6)cc5)CC4)CC3)cc2)C(=O)N1 (centres unmarked) [Compound 1]
C (C is 0.5 to 0.7)

###

- subject-of-test: Aurora kinase A (AURKA) (Homo sapiens)
- Construct: endogenous in cells; host or cells: HeLa LgBit (AURKA-HiBit KI), CRISPR/Cas9 knock-in at the endogenous AURKA locus
- Sequence (O14965 1-403): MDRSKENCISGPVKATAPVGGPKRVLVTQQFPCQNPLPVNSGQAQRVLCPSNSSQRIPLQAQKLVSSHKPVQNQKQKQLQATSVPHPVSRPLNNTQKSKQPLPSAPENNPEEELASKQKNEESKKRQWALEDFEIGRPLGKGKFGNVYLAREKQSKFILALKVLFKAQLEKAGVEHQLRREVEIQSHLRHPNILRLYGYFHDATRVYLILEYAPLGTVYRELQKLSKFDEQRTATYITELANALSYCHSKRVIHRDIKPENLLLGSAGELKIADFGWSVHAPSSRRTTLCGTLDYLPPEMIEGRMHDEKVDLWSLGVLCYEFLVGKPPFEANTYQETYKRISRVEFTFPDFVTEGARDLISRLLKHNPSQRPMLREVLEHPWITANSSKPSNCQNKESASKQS
- method-description: Luciferase assay for AURKA in HeLa LgBit (AURKA-HiBit KI) cell line
- Format: cell-based
- assay-conditions: 100 nM compound, HeLa LgBit (AURKA-HiBit KI) cells, measured after 12 hours
measurement-type: luminescence value (Level)

molecule: O=C1CCN(c2ccc(N3CCN(CCC4CCN(NC(=O)c5ccc(Nc6ncc(F)c(Nc7ccc(C(=O)Nc8ccccc8Cl)cc7)n6)cc5)CC4)CC3)cc2)C(=O)N1
luminescence value (Level): B (B is 0.2 to 0.4)

molecule: O=C1CCC(c2cccc(N3CCC(CN4CCN(C(=O)Cc5ccc(Nc6ncc(F)c(Nc7ccc(C(=O)Nc8ccccc8Cl)cc7)n6)cc5)CC4)CC3)c2)C(=O)N1 (stereo not drawn)
luminescence value (Level): B (B is 0.2 to 0.4)

molecule: CN(CC1CCN(c2ccc(C3CCC(=O)NC3=O)cc2)CC1)C1CCC(NC(=O)c2ccc(Nc3ncc(F)c(Nc4ccc(C(=O)Nc5ccccc5Cl)cc4)n3)cc2)CC1 (stereo not drawn)
luminescence value (Level): A (A is <0.2)

molecule: O=C1CCC(c2ccc(N3CCN(CCC4CCN(NC(=O)c5ccc(Nc6ncc(F)c(Nc7ccc(C(=O)Nc8ccccc8Cl)cc7)n6)cc5)CC4)CC3)c(F)c2)C(=O)N1 (stereo not drawn)
luminescence value (Level): A (A is <0.2)

molecule: O=C1CCC(c2ccc(N3CCN(C[C@H]4CC[C@H](NC(=O)c5ccc(Nc6ncc(F)c(Nc7ccc(C(=O)Nc8ccccc8Cl)cc7)n6)cc5)CC4)CC3)cc2)C(=O)N1 (stereo partly drawn)
luminescence value (Level): A (A is <0.2)

molecule: Cc1cc(N2CCN(CCC3CCN(NC(=O)c4ccc(Nc5ncc(F)c(Nc6ccc(C(=O)Nc7ccccc7Cl)cc6)n5)cc4)CC3)CC2)ccc1NC1CCC(=O)NC1=O (stereo not drawn)
luminescence value (Level): A (A is <0.2)

What value of measured luminescence value (Level) is listed for O=C1CCC(Nc2ccc(N3CCN(C[C@@H]4[C@H]5CN(C(=O)c6ccc(Nc7ncc(F)c(Nc8ccc(C(=O)Nc9ccccc9Cl)cc8)n7)cc6)C[C@@H]45)CC3)cc2)C(=O)N1 (stereo partly drawn) ?
B (B is 0.2 to 0.4)

Entry under review: CN(Cc1ccc(Nc2ncc(F)c(Nc3ccc(C(=O)Nc4ccccc4Cl)cc3)n2)cc1)C1CCN(CCN2CCN(c3ccc(C4CCC(=O)NC4=O)cc3)CC2)CC1 (stereo not drawn) . Reported luminescence value (Level)?
A (A is <0.2)

For O=C1CCC(Nc2ccc(N3CCCN(C[C@H]4CC[C@H](NC(=O)c5ccc(Nc6ncc(F)c(Nc7ccc(C(=O)Nc8ccccc8Cl)cc7)n6)cc5)CC4)CC3)cc2)C(=O)N1 (stereo partly drawn) , what is its reported luminescence value (Level)?
A (A is <0.2)

# query: luminescence value (Level) of entry O=C1CCC(Nc2ccc(N3CC(N4CCc5cc(NC(=O)c6ccc(Nc7ncc(F)c(Nc8ccc(C(=O)Nc9ccccc9Cl)cc8)n7)cc6)ccc5C4)C3)cc2)C(=O)N1 (stereo not drawn)
A (A is <0.2)

So what does the record say about luminescence value (Level) for O=C1CCC(c2ccc(N3CCN(CCC4CCN(NC(=O)c5ccc(Nc6ncc(F)c(Nc7ccc(C(=O)NC8CCCCC8)cc7)n6)cc5)CC4)CC3)cc2)C(=O)N1 (stereo not drawn) ?
A (A is <0.2)

Give its luminescence value (Level) value. Item: O=C1CC[C@H](Nc2ccc(N3CCN(CCC4CCN(NC(=O)c5ccc(Nc6ncc(F)c(Nc7ccc(C(=O)Nc8ccccc8Cl)cc7)n6)cc5)CC4)CC3)cc2F)C(=O)N1
A (A is <0.2)

Give the measured luminescence value (Level) of O=C1CCC(Nc2ccc(N3CC(CN4CC5CN(C(=O)c6ccc(Nc7ncc(F)c(Nc8ccc(C(=O)Nc9ccccc9Cl)cc8)n7)cc6)CC5C4)C3)cc2)C(=O)N1 (stereo not drawn) .
B (B is 0.2 to 0.4)

Quick one: luminescence value (Level) for O=C1CCC(c2ccc(N3CCC(CN4CCN(C(=O)Cc5ccc(Nc6ncc(F)c(Nc7ccc(C(=O)Nc8ccccc8Cl)cc7)n6)cc5)CC4)CC3)cc2)C(=O)N1 (stereo not drawn) ?
A (A is <0.2)

Quick one: luminescence value (Level) of O=C1CCC(Nc2ccc(N3CC4CC(C3)N(C3CCN(C(=O)c5ccc(Nc6ncc(F)c(Nc7ccc(C(=O)Nc8ccccc8Cl)cc7)n6)cc5)CC3)C4)cc2)C(=O)N1 (stereo not drawn) ?
B (B is 0.2 to 0.4)

Which luminescence value (Level) value is on record for O=C1CCC(c2ccc(N3CCN(CCC4CCN(NC(=O)c5ccc(Nc6ncc(F)c(Nc7ccc(C(=O)Nc8ccccc8Cl)cc7)n6)cn5)CC4)CC3)cc2)C(=O)N1 (stereo not drawn) ?
A (A is <0.2)

Need luminescence value (Level), item Cc1cc(Nc2nc(Nc3ccc(C(=O)NN4CCC(CCN5CCN(c6ccc(C7CCC(=O)NC7=O)cc6)CC5)CC4)cc3)ncc2F)n[nH]1 (stereo not drawn)
A (A is <0.2)

What does the data say about its luminescence value (Level)? Entry: O=C1CCC(c2ccc(N3CCN(CCCC4CCN(NC(=O)c5ccc(Nc6ncc(F)c(Nc7ccc(C(=O)Nc8ccccc8Cl)cc7)n6)cc5)CC4)CC3)cc2)C(=O)N1 (stereo not drawn)
A (A is <0.2)

Reported luminescence value (Level), molecule CN(CC1CCN(c2ccc(NC3CCC(=O)NC3=O)cc2)CC1)C[C@H]1CC[C@H](NC(=O)c2ccc(Nc3ncc(F)c(Nc4ccc(C(=O)Nc5ccccc5Cl)cc4)n3)cc2)CC1 (stereo partly drawn) : ____
B (B is 0.2 to 0.4)

State the recorded luminescence value (Level) for this entry: O=C1CCC(c2ccc(N3CCN(CCC4CCN(NC(=O)c5ccc(Nc6ncc(F)c(Nc7ccc(C(=O)Nc8ccccc8)cc7)n6)cc5)CC4)CC3)cc2)C(=O)N1 (stereo not drawn)
A (A is <0.2)
